# system name: CtermHisTag-mEGFR Wild type (Homo sapiens, UniProt P00533)
# Sequence (P00533 whole entry): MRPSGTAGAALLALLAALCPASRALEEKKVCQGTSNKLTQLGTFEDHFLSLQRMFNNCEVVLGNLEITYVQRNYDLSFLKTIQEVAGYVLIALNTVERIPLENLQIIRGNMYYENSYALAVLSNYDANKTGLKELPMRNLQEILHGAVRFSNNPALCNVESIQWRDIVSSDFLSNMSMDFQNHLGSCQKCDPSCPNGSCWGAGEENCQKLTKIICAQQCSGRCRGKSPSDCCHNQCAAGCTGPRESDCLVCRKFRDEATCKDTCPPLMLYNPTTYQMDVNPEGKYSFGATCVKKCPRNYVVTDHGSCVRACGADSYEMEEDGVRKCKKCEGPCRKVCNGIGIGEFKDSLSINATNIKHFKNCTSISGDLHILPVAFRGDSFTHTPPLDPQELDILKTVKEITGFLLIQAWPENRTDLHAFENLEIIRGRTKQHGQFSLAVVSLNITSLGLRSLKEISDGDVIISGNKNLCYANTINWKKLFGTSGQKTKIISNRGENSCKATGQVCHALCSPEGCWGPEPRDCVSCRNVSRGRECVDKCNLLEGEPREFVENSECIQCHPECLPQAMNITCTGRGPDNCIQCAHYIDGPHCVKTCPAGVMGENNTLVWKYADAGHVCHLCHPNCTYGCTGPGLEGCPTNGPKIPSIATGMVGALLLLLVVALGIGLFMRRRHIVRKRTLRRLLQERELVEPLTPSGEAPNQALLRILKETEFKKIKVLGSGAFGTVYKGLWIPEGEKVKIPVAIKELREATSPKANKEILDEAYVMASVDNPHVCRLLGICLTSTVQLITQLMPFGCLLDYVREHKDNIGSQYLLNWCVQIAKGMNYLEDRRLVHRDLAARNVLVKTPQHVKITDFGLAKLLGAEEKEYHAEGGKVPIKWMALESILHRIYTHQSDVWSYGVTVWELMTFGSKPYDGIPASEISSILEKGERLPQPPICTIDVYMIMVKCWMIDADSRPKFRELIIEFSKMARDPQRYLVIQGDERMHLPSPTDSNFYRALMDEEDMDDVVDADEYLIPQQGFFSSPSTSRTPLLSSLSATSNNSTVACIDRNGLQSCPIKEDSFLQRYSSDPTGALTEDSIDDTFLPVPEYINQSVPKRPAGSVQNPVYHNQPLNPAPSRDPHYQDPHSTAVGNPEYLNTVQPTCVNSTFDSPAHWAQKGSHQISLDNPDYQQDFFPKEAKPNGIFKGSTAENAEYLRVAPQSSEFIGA
# method summary: biochemical
Entries annotated with measured IC50

1) C=CC(=O)Nc1cc(=O)n(-c2ccccc2)c2nc(Nc3ccccc3OC)ncc12 [Example 2]	> 10 µM
2) C#Cc1cc(=O)n2c3nc(ncc13)Nc1cccc(c1)OCCCC2 [Example 193]	> 10 µM
3) C#Cc1cc(=O)n(-c2ccccc2)c2nc(Nc3ccc(C4CCNCC4)cc3)ncc12 [Example 22]	< 1 µM

Continue with the next compound.
Consider the compound shown here: C=Cc1c(-c2c(Cl)cccc2Cl)c(=O)n(C)c2nc(Nc3cccc(CO)c3)ncc12 [Example 164] What is its recorded IC50?
> 10 µM
